# target of assay: CB1 cannabinoid receptor (Rattus norvegicus, UniProt P20272)
# Construct: membranes were prepared from rat forebrain membranes; from tissue; host or cells: rat forebrain
# Sequence (P20272 whole entry): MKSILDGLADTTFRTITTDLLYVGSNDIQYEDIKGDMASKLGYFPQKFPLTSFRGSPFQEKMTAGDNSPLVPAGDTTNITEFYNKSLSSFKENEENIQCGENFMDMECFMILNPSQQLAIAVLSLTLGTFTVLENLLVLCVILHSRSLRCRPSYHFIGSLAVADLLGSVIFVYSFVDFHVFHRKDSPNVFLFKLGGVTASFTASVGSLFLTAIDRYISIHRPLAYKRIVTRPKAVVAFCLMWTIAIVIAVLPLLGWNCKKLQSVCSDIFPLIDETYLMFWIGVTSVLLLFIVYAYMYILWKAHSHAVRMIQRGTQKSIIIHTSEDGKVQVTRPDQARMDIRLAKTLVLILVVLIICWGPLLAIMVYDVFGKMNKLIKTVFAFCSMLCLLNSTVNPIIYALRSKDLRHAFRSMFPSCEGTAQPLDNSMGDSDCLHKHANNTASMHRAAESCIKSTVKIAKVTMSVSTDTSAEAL
# measurement protocol: CB1 receptor binding assay, [3H] CP-55,940 displacement, rat forebrain membranes
pKi: −log10 of the molar value.
Assign class by pKi: not lower than 8 means Satisfied; lower than 8 means Not satisfied.

Past entries and their recorded results:
{"compound": "CC(C)(CCCCCCBr)c1cc(O)c2c(c1)OC(C)(C)[C@@H]1CC[C@@H](N=[N+]=[N-])C[C@@H]21 [Compound 7d]", "class assignment": "Satisfied"}
{"compound": "CCCCC=CC1(c2cc(O)c([C@@H]3CC(=O)[C@@H]4C[C@H]3C4(C)C)c(O)c2)CCCC1 [Compound 2b]", "class assignment": "Not satisfied"}
{"compound": "CCCCCCC1(c2cc(O)c([C@@H]3CC(=O)[C@@H]4C[C@H]3C4(C)C)c(O)c2)CCCC1 [Compound 2a]", "class assignment": "Not satisfied"}
{"compound": "CCCCCCC(C)(C)c1cc(O)c2c(c1)OC(C)(C)[C@@H]1CC[C@@H](N=[N+]=[N-])C[C@@H]21 [Compound 7g]", "class assignment": "Satisfied"}
{"compound": "CC(C)(CCCCCCI)c1cc(O)c2c(c1)OC(C)(C)[C@@H]1CC[C@@H](N=[N+]=[N-])C[C@@H]21 [Compound 8]", "class assignment": "Satisfied"}

Now look at this one.
[ask] Item CC(C)(CCCCCCBr)c1cc(O)c2c(c1)OC(C)(C)[C@@H]1CCC(=O)C[C@@H]21 (relative stereo) [Compound 4d] with pKi of 8 or above?
[reply] Satisfied
